System: Plasmodium falciparum
Experiment: Screen against P. falciparum Asexual Blood Stage (ABS), at 5uM
Assay type: functional, Dd2
Settings: tested at 5 uM
Among all 65,000 compounds or so, about 2,100 (3.2%) showed an effect of 50% or more. The median lay at about -52%. Shown is part of a subset that was picked to be rich in strong results.
Would you mind telling me the reported INHIBITION of each entry?
Please give a number only; it is taken to be in %.

State its INHIBITION: `COCCN1C(=O)C2(CCN(CC3CC3)CC2)c2ccccc21`
-18

State its INHIBITION: `CCN1C(=O)C2(CCN(CCN(C)C)CC2)c2ccccc21`
-56.2

State its INHIBITION: Cc1cccc(CN2CCCC2c2cccc(Nc3nccs3)n2)c1 (stereo unspecified)
88.1

State its INHIBITION: `CN1CCC(N2CCN3C(=O)NC[C@H]3C2)CC1`
-11

State its INHIBITION: `COc1cccc(CNc2cc(C)nc(-c3ccncc3)n2)c1OC`
89.3

State its INHIBITION: CCC1CN(C(=O)c2ccc(Cl)cc2O)CCN1C(C)C (stereo unspecified)
73.3
